Target: T1, human LRRC15 extracellular domain with C-terminal His tag (human, UniProt Q8TF66 22-538)
T1 construct: Recombinant, made in HEK293; the entry holds the extracellular domain and the His tag; SPR analyte; also called TPP-1545; hLRRC15 CT-His
T1 sequence: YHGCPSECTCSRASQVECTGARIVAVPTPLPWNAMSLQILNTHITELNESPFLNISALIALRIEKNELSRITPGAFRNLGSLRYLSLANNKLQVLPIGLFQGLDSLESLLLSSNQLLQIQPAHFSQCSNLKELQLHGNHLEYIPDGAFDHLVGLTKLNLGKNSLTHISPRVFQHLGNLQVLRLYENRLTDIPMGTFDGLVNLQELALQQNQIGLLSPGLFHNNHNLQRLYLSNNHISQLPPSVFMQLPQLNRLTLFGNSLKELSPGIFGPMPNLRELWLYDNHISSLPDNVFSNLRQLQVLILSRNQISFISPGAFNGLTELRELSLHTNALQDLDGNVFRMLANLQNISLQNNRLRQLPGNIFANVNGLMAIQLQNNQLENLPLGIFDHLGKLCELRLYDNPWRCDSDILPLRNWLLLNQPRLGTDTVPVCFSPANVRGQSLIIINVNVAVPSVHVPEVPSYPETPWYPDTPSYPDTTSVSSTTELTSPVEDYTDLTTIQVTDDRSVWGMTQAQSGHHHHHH
Assay: SPR (Example 6), overview table, repeats Table 9; head prints [M^-1]
Listing of recorded Kd by entry.
Quick note: give the figure in nM, leave out the unit.

{"binder": "TPP-14389 (antibody, human IgG1, kappa, V domains shown, also called 13612-rec02-hIgG1Kappa) VH: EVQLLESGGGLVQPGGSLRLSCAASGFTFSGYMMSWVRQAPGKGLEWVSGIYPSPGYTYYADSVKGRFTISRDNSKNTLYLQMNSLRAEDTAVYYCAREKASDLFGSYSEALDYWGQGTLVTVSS VL: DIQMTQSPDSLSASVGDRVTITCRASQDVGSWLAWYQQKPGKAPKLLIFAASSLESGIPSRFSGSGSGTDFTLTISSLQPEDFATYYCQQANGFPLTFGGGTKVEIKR", "Kd [nM]": 5.9}

# ---- query binder ----
Lab book: Kd of TPP-17421 (antibody, human IgG1, kappa, V domains shown, also called 438H-M306-C11-hIgG1Kappa) VH: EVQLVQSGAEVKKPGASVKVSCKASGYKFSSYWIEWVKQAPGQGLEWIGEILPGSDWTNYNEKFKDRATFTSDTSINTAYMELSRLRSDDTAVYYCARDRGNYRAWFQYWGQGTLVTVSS VL: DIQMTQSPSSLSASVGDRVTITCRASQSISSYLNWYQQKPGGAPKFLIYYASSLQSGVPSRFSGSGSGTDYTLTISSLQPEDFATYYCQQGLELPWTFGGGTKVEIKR noted as 0.96

Cited source: patent US20240108766A1
